# Tested on: influenza B virus-induced pulmonary fibrosis model (influenza B (H7N9) virus)
# Format: in vivo, C57BL/6 mice
# conditionParameters: serum; influenza B (H7N9) + bleomycin; 120 mg/kg/d intragastric, 14 days, from two weeks after model
measuredQuantity: NF-κB (pg/mL)
Write the value in pg/mL as a bare number.

Field: example entries. Status: answers known.
[[record]]
molecule = "CC(C)Oc1ncnc2ncn(C(C)C)c12"
assayvalue = 29.3

[[record]]
molecule = "COc1ncnc2c1ncn2C(C)C"
assayvalue = 33.4

[[record]]
molecule = "CC(C)Oc1ncnc2c1N(C(C)C)CN2C(C)C"
assayvalue = 31.2


Data request: Param item = CC(C)n1cnc2c(=O)[nH]cnc21 ; retrieve measured NF-κB.
Data returned: 29.5

Data request: Param item = CCOc1ncnc2c1ncn2C(C)C ; retrieve measured NF-κB.
Data returned: 31.9

Data request: Param item = CC(C)Oc1ncnc2[nH]cnc12 ; retrieve measured NF-κB.
Data returned: 30.5

Data request: Param item = CC(C)Oc1ncnc2nc[nH]c12 ; retrieve measured NF-κB.
Data returned: 31.4

Data request: Param item = CCC(=O)Oc1ncnc2c1ncn2C(C)C ; retrieve measured NF-κB.
Data returned: 32.9

Data request: Param item = CC(C)Oc1ncnc2c1ncn2C [Hypoxanthine analogue B, reference compound] ; retrieve measured NF-κB.
Data returned: 627.1

Data request: Param item = CC(C)n1cnc2nc[nH]c(=O)c21 ; retrieve measured NF-κB.
Data returned: 32.4

Data request: Param item = COC(=O)c1ccc2c(c1)NC(=O)/C2=C(\Nc1ccc(N(C)C(=O)CN2CCN(C)CC2)cc1)c1ccccc1 [Nintedanib, reference compound] ; retrieve measured NF-κB.
Data returned: 529.7

Data request: Param item = CC(C)Oc1ncnc2c1ncn2C(C)C ; retrieve measured NF-κB.
Data returned: 28.8

Data request: Param item = CC(=O)Oc1ncnc2c1ncn2C(C)C ; retrieve measured NF-κB.
Data returned: 31.6

Data request: Param item = O=c1[nH]cnc2[nH]cnc12 [Hypoxanthine analogue A, reference compound] ; retrieve measured NF-κB.
Data returned: 630.5

Data request: Param item = CCCOc1ncnc2c1ncn2C(C)C ; retrieve measured NF-κB.
Data returned: 30.8

====

# Test system: bleomycin-induced pulmonary fibrosis model
# methodDescription: Comparison with comparative drugs: bleomycin-induced model, hydroxyproline and TGF-β
# Type: in vivo, C57BL/6 mice
# conditionParameters: 120 mg/kg/d intragastric, twice every day, 14 days, from two weeks after model; Day 15
measuredQuantity: TGF-β in bronchoalveolar lavage fluids (µg/L)
Write the value in µg/L as a bare number.

[[record]]
compound = "CCCOc1ncnc2c1ncn2C(C)C [Compound 9]"
unitabbrev = "µg/L"
assayvalue = 4.05

[[record]]
compound = "CCOc1ncnc2c1ncn2C(C)C [Compound 8]"
unitabbrev = "µg/L"
assayvalue = 4.06

[[record]]
compound = "CC(C)n1cnc2c(=O)[nH]cnc21 [Compound E-1]"
unitabbrev = "µg/L"
assayvalue = 6.51

[[record]]
compound = "CC(C)Oc1ncnc2c1N(C(C)C)CN2C(C)C [Compound 10]"
unitabbrev = "µg/L"
assayvalue = 4.21


Data request: Provide the documented TGF-β in bronchoalveolar lavage fluids with bleomycin-induced pulmonary fibrosis model as the system for CC(C)n1cnc2[nH]cnc2c1=N [Compound E-8]
Data returned: 6.51

Data request: Provide the documented TGF-β in bronchoalveolar lavage fluids with bleomycin-induced pulmonary fibrosis model as the system for CC(C)Oc1ncnc2c1ncn2C(C)C [Compound 3]
Data returned: 3.95

====

# Tested on: novel coronavirus-induced pulmonary fibrosis model (COVID-19 novel coronavirus strains)
# methodDescription: Novel coronavirus-induced pulmonary fibrosis model
# Type: in vivo, C57BL/6 mice
# conditionParameters: serum; COVID-19 novel coronavirus + bleomycin; 120 mg/kg/d intragastric, 14 days, from two weeks after model
Here, each record is paired with measured IL-1β data.
Write the value in pg/mL as a bare number.

Field: example entries. Status: answers known.
[[record]]
compound = "CC(C)n1cnc2c(=O)[nH]cnc21 [Compound 2]"
assayvalue = 35.1

[[record]]
compound = "CC(C)Oc1ncnc2c1ncn2C [Hypoxanthine analogue B, reference compound]"
assayvalue = 491.8

[[record]]
compound = "CC(C)Oc1ncnc2c1ncn2C(C)C [Compound 3]"
assayvalue = 36.3


Moving on to the next compound.
Data request: Param item = CC(C)Oc1ncnc2ncn(C(C)C)c12 [Compound 4] ; retrieve measured IL-1β.
Data returned: 37.2

====

Here, each record is paired with measured Lymphocyte data.
# Tested on: mycoplasma-induced pulmonary fibrosis model (MPFH strain)
# methodDescription: Mycoplasma-induced pulmonary fibrosis model
# Assay type: in vivo, C57BL/6 mice
# conditionParameters: MPFH mycoplasma + bleomycin; 120 mg/kg/d intragastric, once a day, 14 days, from two weeks after model
# Excerpt: Experimental method: an in-vivo mycoplasma-induced pulmonary fibrosis model was established: C57BL/6 mice (with weights being 22-25 g) were randomly and evenly divided into a plurality of groups, including blank control group, model group, Nintedanib positive control group, hypoxanthine analogue A group, hypoxanthine analogue B group, hypoxanthine analogue C group, compound 1 group, compound 2 group . . . compound 12 group, with 9 mice in each group. […]

[[record]]
compound = "CCCOc1ncnc2c1ncn2C(C)C [Compound 9]"
assayvalue = "73.19 10^9/L"


Data request: Param item = COc1ncnc2c1ncn2C(C)C [Compound 7] ; retrieve measured Lymphocyte.
Data returned: 73.29 10^9/L

Data request: Param item = CC(C)Oc1ncnc2nc[nH]c12 [Compound 5] ; retrieve measured Lymphocyte.
Data returned: 74.39 10^9/L

Data request: Param item = CCC(=O)Oc1ncnc2c1ncn2C(C)C [Compound 12] ; retrieve measured Lymphocyte.
Data returned: 74.46 10^9/L

Data request: Param item = CC(=O)Oc1ncnc2c1ncn2C(C)C [Compound 11] ; retrieve measured Lymphocyte.
Data returned: 73.25 10^9/L

Data request: Param item = CC(C)n1cnc2c(=O)[nH]cnc21 [Compound 2] ; retrieve measured Lymphocyte.
Data returned: 72.69 10^9/L

Data request: Param item = CC(C)Oc1ncnc2ncn(C(C)C)c12 [Compound 4] ; retrieve measured Lymphocyte.
Data returned: 73.37 10^9/L

Data request: Param item = O=c1[nH]cnc2[nH]cnc12 [Hypoxanthine analogue A, reference compound] ; retrieve measured Lymphocyte.
Data returned: 567.15 10^9/L

Data request: Param item = COC(=O)c1ccc2c(c1)NC(=O)/C2=C(\Nc1ccc(N(C)C(=O)CN2CCN(C)CC2)cc1)c1ccccc1 [Nintedanib, reference compound] ; retrieve measured Lymphocyte.
Data returned: 565.69 10^9/L

Data request: Param item = CC(C)Oc1ncnc2c1N(C(C)C)CN2C(C)C [Compound 10] ; retrieve measured Lymphocyte.
Data returned: 72.54 10^9/L

Data request: Param item = CC(C)n1cnc2nc[nH]c(=O)c21 [Compound 6] ; retrieve measured Lymphocyte.
Data returned: 71.57 10^9/L

Data request: Param item = CC(C)Oc1ncnc2[nH]cnc12 [Compound 1] ; retrieve measured Lymphocyte.
Data returned: 72.56 10^9/L

Data request: Param item = CC(C)Oc1ncnc2c1ncn2C [Hypoxanthine analogue B, reference compound] ; retrieve measured Lymphocyte.
Data returned: 568.05 10^9/L

Data request: Param item = CCOc1ncnc2c1ncn2C(C)C [Compound 8] ; retrieve measured Lymphocyte.
Data returned: 72.52 10^9/L

Data request: Param item = CC(C)Oc1ncnc2c1ncn2C(C)C [Compound 3] ; retrieve measured Lymphocyte.
Data returned: 72.33 10^9/L

====

# Tested on: influenza A virus-induced pulmonary fibrosis model (FM1 strain of influenza A (H1N1) virus)
# methodDescription: Influenza A virus-induced pulmonary fibrosis model
# Type: in vivo, C57BL/6 mice
# conditionParameters: serum; influenza A (H1N1) FM1 + bleomycin; 120 mg/kg/d intragastric, 14 days, from two weeks after model
Here, each record is paired with measured TNF-α data.
Write the value in pg/mL as a bare number.

Field: example entries. Status: answers known.
[[record]]
molecule = "CC(C)n1cnc2nc[nH]c(=O)c21"
measuredquantity = "TNF-α"
assayvalue = 90.3

[[record]]
molecule = "CCOc1ncnc2c1ncn2C(C)C"
measuredquantity = "TNF-α"
assayvalue = 89.9

[[record]]
molecule = "CC(C)Oc1ncnc2ncn(C(C)C)c12"
measuredquantity = "TNF-α"
assayvalue = 89.8

[[record]]
molecule = "CC(C)Oc1ncnc2[nH]cnc12"
measuredquantity = "TNF-α"
assayvalue = 87.1

[[record]]
molecule = "CC(C)Oc1ncnc2c1N(C(C)C)CN2C(C)C"
measuredquantity = "TNF-α"
assayvalue = 89.6


Data request: Param item = COC(=O)c1ccc2c(c1)NC(=O)/C2=C(\Nc1ccc(N(C)C(=O)CN2CCN(C)CC2)cc1)c1ccccc1 [Nintedanib, reference compound] ; retrieve measured TNF-α.
Data returned: 243.6

Data request: Param item = COc1ncnc2c1ncn2C(C)C ; retrieve measured TNF-α.
Data returned: 91.2

Data request: Param item = CCC(=O)Oc1ncnc2c1ncn2C(C)C ; retrieve measured TNF-α.
Data returned: 90.8

Data request: Param item = CC(C)Oc1ncnc2c1ncn2C(C)C ; retrieve measured TNF-α.
Data returned: 86.1

Data request: Param item = CCCOc1ncnc2c1ncn2C(C)C ; retrieve measured TNF-α.
Data returned: 91.1
